pKi values for the compounds below.
target: α5β3γ2 GABAA receptors (Ltk cell membranes) (Homo sapiens, UniProt P18507+P31644); construct: membranes; experiment: Binding activity of test compounds on GABAAR: inhibition of [3H]Ro15-1788 binding; conditions: GABA α5 Binding Ki Values, inhibition of [3H]Ro15-1788 binding; reported as ranges
Sequence (P31644 32-462): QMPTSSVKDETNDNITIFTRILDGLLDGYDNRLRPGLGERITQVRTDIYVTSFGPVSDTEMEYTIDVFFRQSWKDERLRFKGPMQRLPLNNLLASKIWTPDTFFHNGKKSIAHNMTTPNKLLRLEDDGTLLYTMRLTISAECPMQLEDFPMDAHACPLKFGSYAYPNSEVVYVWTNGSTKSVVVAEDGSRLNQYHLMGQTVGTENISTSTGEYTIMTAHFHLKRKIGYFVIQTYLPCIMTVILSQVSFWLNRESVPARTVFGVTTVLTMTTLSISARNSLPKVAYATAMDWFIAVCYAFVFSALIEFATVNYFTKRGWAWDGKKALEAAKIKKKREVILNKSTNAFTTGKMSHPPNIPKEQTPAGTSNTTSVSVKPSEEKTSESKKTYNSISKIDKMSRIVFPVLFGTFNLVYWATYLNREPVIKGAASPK
Sequence (P28472 26-473 partner): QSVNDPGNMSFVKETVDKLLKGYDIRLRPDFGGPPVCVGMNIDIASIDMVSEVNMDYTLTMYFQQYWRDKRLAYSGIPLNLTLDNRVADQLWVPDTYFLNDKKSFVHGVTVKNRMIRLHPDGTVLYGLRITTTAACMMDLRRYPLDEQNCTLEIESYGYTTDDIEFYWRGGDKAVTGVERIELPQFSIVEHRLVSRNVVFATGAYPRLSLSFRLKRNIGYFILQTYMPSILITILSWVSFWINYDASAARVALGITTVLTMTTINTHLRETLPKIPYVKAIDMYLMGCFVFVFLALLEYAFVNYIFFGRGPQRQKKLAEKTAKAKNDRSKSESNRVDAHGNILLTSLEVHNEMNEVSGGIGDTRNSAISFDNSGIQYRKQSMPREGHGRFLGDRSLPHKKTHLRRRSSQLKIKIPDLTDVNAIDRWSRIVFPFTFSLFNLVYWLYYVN
Sequence (P18507 40-475): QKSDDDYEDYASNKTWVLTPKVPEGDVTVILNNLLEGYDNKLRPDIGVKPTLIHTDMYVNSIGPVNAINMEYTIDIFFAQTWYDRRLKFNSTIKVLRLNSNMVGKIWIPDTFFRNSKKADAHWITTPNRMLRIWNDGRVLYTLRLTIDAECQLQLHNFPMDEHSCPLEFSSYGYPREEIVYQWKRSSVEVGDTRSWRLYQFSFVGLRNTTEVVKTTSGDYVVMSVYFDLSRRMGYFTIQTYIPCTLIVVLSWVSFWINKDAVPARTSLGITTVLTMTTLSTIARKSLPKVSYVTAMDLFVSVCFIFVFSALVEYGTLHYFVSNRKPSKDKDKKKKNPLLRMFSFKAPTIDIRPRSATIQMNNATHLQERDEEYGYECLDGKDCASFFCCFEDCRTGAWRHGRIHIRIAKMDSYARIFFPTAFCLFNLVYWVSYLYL
pKi: −log10 of the molar value.
VALUE_TYPE: pKi

* CCc1nc(-c2ncn3c2Cc2c(Cc4ccccc4)nnn2-c2cc(OC)ccc2-3)no1 | > 7.00
* CCOC(=O)c1ncn2c1Cc1c(CN(CC)CC)nnn1-c1cc(OC)ccc1-2 | 6.00 to 7.00
* Cc1nnn2c1Cc1c(C#N)ncn1-c1ccccc1-2 | 6.00 to 7.00
* COc1ccc2c(c1)-c1nnc(COc3ccccc3)n1Cc1c(C(F)F)ncn1-2 | 6.00 to 7.00
* C#Cc1ncn2c1Cc1c(C(=O)c3ccc(Cl)cc3)nnn1-c1cc(OC)ccc1-2 | 6.00 to 7.00
* COc1ccc2c(c1)-c1nnc(COc3ccc(F)cc3)n1Cc1c(-c3noc(C)n3)ncn1-2 | > 7.00
* CCOCc1nnc2n1Cc1c(-c3noc(C(C)C)n3)ncn1-c1ccc(OC)cc1-2 | > 7.00
* Clc1ccc2c(c1)-n1nncc1Cc1c(Br)ncn1-2 | > 7.00
* FC(F)(F)COCc1nnc2n1Cc1c(-c3nc(-c4ccccc4)co3)ncn1-c1ccc(Cl)cc1-2 | > 7.00
* Cc1nnn2c1Cc1c(C(=O)OCC(C)(C)C)ncn1-c1ccc(F)cc1-2 | 6.00 to 7.00
* COCc1nnc2n1Cc1c(C3=N[C@@H](Cc4ccccc4)CO3)ncn1-c1ccc(Cl)cc1-2 | 6.00 to 7.00
* Clc1ccc2c(c1)-n1nncc1Cc1c(C#Cc3ccccn3)ncn1-2 | > 7.00

----------
target: α5β3γ2 GABAA receptors (Ltk cell membranes) (Homo sapiens, UniProt P18507+P31644); construct: membranes; assay: Binding activity of test compounds on GABAAR: inhibition of [3H]Ro15-1788 binding; settings: GABA α5 Binding Ki Values, inhibition of [3H]Ro15-1788 binding; reported as ranges
Ki values for the compounds below.
VALUE_TYPE: Ki

* CCOCc1nnc2n1Cc1c(Br)ncn1-c1ccc(Cl)cc1-2 | < 100 nM
* COc1ccc2c(c1)-n1nncc1Cc1c(-c3nc(-c4ccc(F)c(C(F)(F)F)c4)co3)ncn1-2 | 100 to 1000 nM
* CCOC(=O)c1ncn2c1Cc1c(COc3ccc(C)cc3C)nnn1-c1cc(OC)ccc1-2 | < 100 nM
* C=Cc1ncn2c1Cc1c(Cc3ccc(C)cc3)nnn1-c1cc(OC)ccc1-2 | > 1000 nM
* CCOC(=O)c1ncn2c1Cn1c(Oc3ccccc3)nnc1-c1cc(OC)ccc1-2 | < 100 nM
* CCOC(=O)c1ncn2c1Cc1c(C)nnn1-c1ccccc1-2 | < 100 nM
* CCOC(=O)c1ncn2c1Cc1c(C)nnn1-c1cc(OC)ccc1-2 | < 100 nM
* CC(C)OCc1nnc2n1Cc1c(C3=N[C@H](C)CO3)ncn1-c1ccc(Cl)cc1-2 | 100 to 1000 nM
* COc1ccc2c(c1)-n1nncc1Cc1c(C3=N[C@@H](C(C)C)CO3)ncn1-2 | 100 to 1000 nM
* COc1ccc2c(c1)-n1nncc1Cc1c(C#CCc3cccc(Cl)c3)ncn1-2 | < 100 nM
